Data provenance: ChEMBL document CHEMBL2311339

Experiment Description: AUC (0 to t) in rat at 5 mg/kg, iv
Type: ADME, organism-based
Set-up: dose 5 mg/kg, route intravenous
Applied Conditions: plasma

| Record Smiles | AUC(0-t) [ng·h/mL] |
| --- | --- |
| Cc1ccc(C(=O)Nc2ccc(CN3CCN(C)CC3)c(C(F)(F)F)c2)cc1C#Cc1cnc2[nH]ncc2c1 | 2740 |

* * *

Assayed System: Tyrosine-protein kinase ABL1 (Homo sapiens, UniProt P00519, H396P)

| Record Smiles | IC50 |
| --- | --- |
| Cc1ccc(C(=O)Nc2ccc(CN3CCN(C)CC3)c(C(F)(F)F)c2)cc1C#Cc1cnc2[nH]ncc2c1 | 350 pM |
